The measurements presented in this section are drawn from PubChem BioAssay (NCI).

System: K-562 leukemia
assay_details: NCI-60 one-dose screen, 48 h
protocol_conditions: 10 µM unless noted
This is part of a sample that, as a whole, favours compounds with a hit. Of some 83,000 tested, about 20% had one in any assay. Calls of active or inactive are those of the source. Rule for the calls: active = growth percent below 10; inactive = the rest.
Labels: active, inactive

INSERT INTO measurements (compound_structure_string, label) VALUES
  ('C=C1C(=O)O[C@H]2[C@H]1CC/C(COC(=O)CCSCCC(=O)OC/C1=C/CC[C@@]3(C)O[C@H]3[C@H]3OC(=O)C(=C)[C@@H]3CC1)=C\CC[C@@]1(C)O[C@@H]21', 'active'),
  ('CC(C)(C)n1cc(-c2ccnc(NCCCNS(=O)(=O)c3ccc(F)cc3)c2)c(-c2cccc(F)c2)n1', 'inactive'),
  ('O=C(/C=C/c1ccccc1)c1cccc(OCCCOc2cccc(C(=O)/C=C/c3ccccc3)c2)c1', 'inactive'),
  ('CS(=O)(=O)Nc1cc(-c2ccc3ncnc(Nc4ccc5c(cnn5Cc5ccccn5)c4)c3c2)cnc1Cl', 'inactive');
